# test system: recombinant human MAO-A (monoamine oxidase-A) (Homo sapiens)
# Construct: purchased Sigma-Aldrich
# Sequence (P21397 whole entry): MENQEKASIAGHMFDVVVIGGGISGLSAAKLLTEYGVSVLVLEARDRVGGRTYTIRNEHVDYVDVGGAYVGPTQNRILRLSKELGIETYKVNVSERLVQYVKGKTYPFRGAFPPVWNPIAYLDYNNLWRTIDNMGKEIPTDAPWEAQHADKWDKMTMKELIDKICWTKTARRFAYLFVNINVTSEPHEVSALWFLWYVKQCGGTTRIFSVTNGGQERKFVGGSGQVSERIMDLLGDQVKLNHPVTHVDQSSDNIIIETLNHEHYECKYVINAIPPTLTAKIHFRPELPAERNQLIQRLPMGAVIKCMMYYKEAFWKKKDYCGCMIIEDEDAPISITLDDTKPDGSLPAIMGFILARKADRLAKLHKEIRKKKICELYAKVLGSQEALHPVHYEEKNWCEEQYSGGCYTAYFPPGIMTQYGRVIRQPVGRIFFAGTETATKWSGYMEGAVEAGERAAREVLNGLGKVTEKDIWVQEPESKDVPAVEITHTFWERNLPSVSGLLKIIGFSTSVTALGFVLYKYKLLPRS
# experiment notes: Activity on recombinant human MAO-A, method similar to VAP-1 assay, 0.5 mM tyramine substrate
# Format: biochemical
# test conditions: read-out: Inhibitory Activity (IC50, nM) MAO-A
Where a name gives a salt, the structure may show the parent alone.
parameter measured: IC50

Use these answered entries as a reference point.
molecule | IC50
NC/C(=C\F)Cn1nc2ccc(-c3ccc4nonc4c3)cn2c1=O [Example 16, trifluoroacetate] | 10200 nM
Cc1cc(-c2ccn3c(=O)n(CC(CN)=C(F)F)nc3c2)cc2c1NC(=O)CC2 [Example 53, trifluoroacetate] | > 100000 nM
CS(=O)(=O)c1cccc(-c2ccn3c(=O)n(C/C(=C/F)CN)nc3c2)c1 [Example 22, hydrochloride] | > 100000 nM
NC/C(=C\F)Cn1nc2cc(-c3ccc(C(F)(F)F)nc3)ccn2c1=O [Example 30, hydrochloride] | 68000 nM
NC/C(=C\F)Cn1nc2ccc(-c3ccc4sc(N)nc4c3)cn2c1=O [Example 14, trifluoroacetate] | > 100000 nM
NCC(Cn1nc2cc(C#Cc3ccc4c(c3)NCCO4)ccn2c1=O)=C(F)F [Example 59, ditrifluoroacetate] | > 100000 nM

Okay, now this molecule:
INPUT: Return reported IC50; argument: NC/C(=C\F)Cn1nc2cc(-c3cccc(-c4cc[nH]n4)c3)ccn2c1=O [Example 26, hydrochloride]
OUTPUT: > 100000 nM
